- assay-target: Protein cereblon/B-cell lymphoma 6 protein (Homo sapiens) (UniProt Q96SW2+P41182)
- test-name: PROTAC activity at CRBN/N-terminal HiBit-tagged BCL6 in human HT-1080 cells transfected with pLV-UBC-N-HiBiT- BCL6-PGK-puro assessed as degradation of BCL6 by measuring ratio of trough concentration of protein in cell compared to the concentration of protein before the cell contact with compound (Ymin) incubated for 5 hrs by luminescence based NANO-Glo HIBiT lytic detection assay relative to control
experimental-readout: Emin

Previously resolved entries follow.
CNC(=O)COc1cc2cc(Nc3nc(N4CCN(CC5CCN(c6cccc7c(C8CCC(=O)NC8=O)nn(C)c67)CC5)CC4)ncc3Cl)cc3c2n(c1=O)CCO3 (stereo not drawn) : < 30%
CNC(=O)COc1cc2cc(Nc3nc(N4CCN(CC5CCN(c6ccc7c(C8CCC(=O)NC8=O)nn(C)c7c6)CC5(F)F)C(C)C4)ncc3Cl)cnc2n(C(C)C)c1=O (stereo not drawn) : 30%

Consider the record given below.
Read off the recorded Emin for CNC(=O)COc1cc2cc(Nc3nc(N4CC[C@@H](CN5CCN(c6cccc7c(C8CCC(=O)NC8=O)nn(C)c67)CC5)[C@@H](C)C4)ncc3Cl)cc3c2n(c1=O)CCO3 (stereo partly drawn)
< 30%
